protocol.notes: in vivo
setup.conditions: plasma; rat, IV 1 mg/kg, 2 h
Structures can show the parent of a compound that is named as a salt.
endpoint.name: concentration at 2 h (ng/mL)
Output spec: scalar in ng/mL, unitless text.

Task: GET /values?readout=concentration at 2 h&item= COc1cc2nc(N3CCC(c4ccccn4)CC3)nc(N)c2cc1OC [Compound 7, (hydrochloride)]
Output: 40

---

protocol.notes: in vivo
setup.conditions: plasma, po; rat, OS 15 mg/kg, 6 h
Structures can show the parent of a compound that is named as a salt.
endpoint.name: concentration at 6 h (ng/mL)
Output spec: scalar in ng/mL, unitless text.

Task: GET /values?readout=concentration at 6 h&item= COc1cc2nc(N3CCC(c4ccccn4)CC3)nc(N)c2cc1OC [Compound 7, (hydrochloride)]
Output: 280

---

protocol.notes: in vivo
setup.conditions: rat, plasma, iv, 1 mg/kg
Where a name gives a salt, the structure may show the parent alone.
endpoint.name: concentration at 3 h (ng/mL)
Output spec: scalar in ng/mL, unitless text.

Task: GET /values?readout=concentration at 3 h&item= COc1cc2nc(N3CCC(c4ccccn4)CC3)nc(N)c2cc1OC [Compound 7, (hydrochloride)]
Output: 20

---

tested.target: alpha1A + alpha1C adrenergic receptor (human prostate)
protocol.notes: [3H]-prazosin binding in human prostate
setup.conditions: alpha1A + alpha1C subtype, pH 7.5, 30 min, 25° C., read-out: Inhibition of the binding of [3H]-prazosin IC50
A collection of molecules and their measured IC50
Report the figure along with its unit, number first.

Examples with their reported IC50 follow.
# molecule, IC50
data = [
    ("CCOc1ccccc1C1CCN(c2nc(N)c3cc(OC)c(OC)cc3n2)CC1 [Compound 3]", "10.8 nM"),
    ("COc1cc2nc(N3CCC(c4ccccc4OC)CC3)nc(N)c2cc1OC [Compound 2]", "7.8 nM"),
    ("COc1cc2nc(N3CCC(c4cccs4)CC3)nc(N)c2cc1OC [Compound 6]", "4.5 nM"),
]

Task: GET /values?readout=IC50&item= COc1cc2nc(N3CCC(c4ccco4)CC3)nc(N)c2cc1OC [Compound 4]
Output: 3.8 nM

Task: Request: COc1cc2nc(N3CCC(c4ccc(C)o4)CC3)nc(N)c2cc1OC [Compound 5]
Output: 1.7 nM

---

A collection of compounds and their measured pIC50
tested.target: alpha1A + alpha1C adrenergic receptor (human prostate)
protocol.notes: [3H]-prazosin binding in human prostate
setup.conditions: alpha1A + alpha1C subtype, pH 7.5, 30 min, 25° C., read-out: Inhibition of the binding of [3H]-prazosin IC50
Where a name gives a salt, the structure may show the parent alone.
Please express pIC50 as -log10 of the molar concentration.

Examples with their reported pIC50 follow.
# compound, tested.target, numeric.readout
records = [
    ("O=C(c1ccc(F)cc1)C1CCN(CCn2c(=O)[nH]c3ccccc3c2=O)CC1 [Ketanserine, reference compound]", "alpha1A + alpha1C adrenergic receptor (human prostate)", 6.57),
    ("COc1cc2nc(N3CCC(c4ccccn4)CC3)nc(N)c2cc1OC [Compound 7, (hydrochloride)]", "alpha1A + alpha1C adrenergic receptor (human prostate)", 8.30),
    ("COc1cc2nc(N3CCC(c4cc5ccccc5o4)CC3)nc(N)c2cc1OC", "alpha1A + alpha1C adrenergic receptor (human prostate)", 7.70),
]

Now look at this entry.
Task: GET /values?readout=pIC50&item= COc1cc2nc(N3CCC(c4ccccc4)CC3)nc(N)c2cc1OC
Output: 8.70

---

protocol.notes: in vivo
setup.conditions: plasma, po; rat, OS 15 mg/kg
Where a name gives a salt, the structure may show the parent alone.
endpoint.name: AUC (ng·h/mL)
Output spec: scalar in ng·h/mL, unitless text.

Task: GET /values?readout=AUC&item= COc1cc2nc(N3CCC(c4ccccn4)CC3)nc(N)c2cc1OC [Compound 7, (hydrochloride)]
Output: 3620

---

tested.target: alpha1B adrenergic receptor (rat liver) (Rattus norvegicus)
protocol.notes: [3H]-prazosin binding in rat liver
endpoint.name: pIC50
Please express pIC50 as -log10 of the molar concentration.

# compound, pIC50
rows = [
    ("COc1cc2nc(N3CCC(c4ccccc4OC)CC3)nc(N)c2cc1OC [Compound 2]", 8.11),
]

Now look at this entry.
Task: GET /values?readout=pIC50&item= COc1cc2nc(N3CCC(c4ccccc4)CC3)nc(N)c2cc1OC [Compound 1]
Output: 7.89

---

protocol.notes: in vivo
setup.conditions: plasma, po; rat, OS 15 mg/kg, 0.5 h
Where a name gives a salt, the structure may show the parent alone.
endpoint.name: concentration at 0.5 h
Report the figure along with its unit, number first.

Task: GET /values?readout=concentration at 0.5 h&item= COc1cc2nc(N3CCC(c4ccccn4)CC3)nc(N)c2cc1OC [Compound 7, (hydrochloride)]
Output: 360 ng/mL

---

A collection of compounds and their measured pIC50
tested.target: alpha1B adrenergic receptor (rat liver) (Rattus norvegicus)
Sequence (P15823 1-515): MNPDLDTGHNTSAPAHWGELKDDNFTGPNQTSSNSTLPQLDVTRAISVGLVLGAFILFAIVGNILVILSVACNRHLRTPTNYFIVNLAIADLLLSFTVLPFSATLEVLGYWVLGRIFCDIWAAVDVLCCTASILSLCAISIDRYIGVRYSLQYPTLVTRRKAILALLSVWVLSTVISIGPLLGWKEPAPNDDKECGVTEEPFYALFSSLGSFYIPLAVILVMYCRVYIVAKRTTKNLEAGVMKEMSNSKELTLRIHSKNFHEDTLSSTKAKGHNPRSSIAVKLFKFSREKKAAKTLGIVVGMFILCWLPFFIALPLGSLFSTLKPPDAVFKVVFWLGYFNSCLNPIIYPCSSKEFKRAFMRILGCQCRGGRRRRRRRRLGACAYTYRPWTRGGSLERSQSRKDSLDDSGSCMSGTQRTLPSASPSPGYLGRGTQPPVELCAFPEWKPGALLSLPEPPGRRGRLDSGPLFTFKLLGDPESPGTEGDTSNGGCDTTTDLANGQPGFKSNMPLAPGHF
protocol.notes: [3H]-prazosin binding in rat liver
setup.conditions: read-out: Inhibition of the binding of [3H]-prazosin IC50; rat liver, alpha1B subtype
Please express pIC50 as -log10 of the molar concentration.

# compound, pIC50
measured = [
    ("COc1cc2nc(N3CCC(c4ccco4)CC3)nc(N)c2cc1OC [Compound 4]", 8.77),
]

Now look at this entry.
Task: GET /values?readout=pIC50&item= CCOc1ccccc1C1CCN(c2nc(N)c3cc(OC)c(OC)cc3n2)CC1 [Compound 3]
Output: 7.85

---

protocol.notes: in vivo
setup.conditions: plasma, po; rat, OS 15 mg/kg, 4 h
Structures can show the parent of a compound that is named as a salt.
endpoint.name: concentration at 4 h
Report the figure along with its unit, number first.

Task: GET /values?readout=concentration at 4 h&item= COc1cc2nc(N3CCC(c4ccccn4)CC3)nc(N)c2cc1OC [Compound 7, (hydrochloride)]
Output: 320 ng/mL

---

tested.target: alpha1A adrenergic receptor (rat GSM) (Rattus norvegicus, UniProt P43140)
Sequence (P43140 whole entry): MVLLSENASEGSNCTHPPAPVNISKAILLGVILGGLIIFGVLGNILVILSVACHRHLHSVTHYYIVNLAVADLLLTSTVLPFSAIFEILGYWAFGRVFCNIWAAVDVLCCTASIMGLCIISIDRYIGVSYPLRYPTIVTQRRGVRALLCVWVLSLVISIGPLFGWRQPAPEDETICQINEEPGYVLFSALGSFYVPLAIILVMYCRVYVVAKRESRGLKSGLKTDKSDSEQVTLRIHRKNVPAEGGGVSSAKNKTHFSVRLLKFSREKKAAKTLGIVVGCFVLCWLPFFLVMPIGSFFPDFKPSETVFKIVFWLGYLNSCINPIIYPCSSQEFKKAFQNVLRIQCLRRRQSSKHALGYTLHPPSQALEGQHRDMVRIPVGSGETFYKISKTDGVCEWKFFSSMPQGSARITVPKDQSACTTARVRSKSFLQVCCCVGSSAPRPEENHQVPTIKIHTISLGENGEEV
Where a name gives a salt, the structure may show the parent alone.
For each record, check the reported IC50: if it is below 10 nM write satisfied, else write not satisfied.

The examples below pair each entry with its known result.
# compound, qualitative.label
measured = [
    ("COc1cc2nc(N3CCC(c4cccs4)CC3)nc(N)c2cc1OC", "satisfied"),
    ("CCOc1ccccc1C1CCN(c2nc(N)c3cc(OC)c(OC)cc3n2)CC1", "not satisfied"),
    ("COc1cc2nc(N3CCC(c4cc5ccccc5o4)CC3)nc(N)c2cc1OC", "not satisfied"),
    ("COc1cc2nc(N3CCC(c4ccccn4)CC3)nc(N)c2cc1OC [Compound 7, (hydrochloride)]", "satisfied"),
    ("COc1cccc(OC)c1OCCNCC1COc2ccccc2O1 (stereo not shown) [WB-4101, reference compound]", "not satisfied"),
]

Task: Dear reviewer, please state whether COc1cc2nc(N3CCC(c4ccco4)CC3)nc(N)c2cc1OC has IC50 strictly beneath 10 nM.
Output: satisfied

Task: Request: O=C(c1ccc(F)cc1)C1CCN(CCn2c(=O)[nH]c3ccccc3c2=O)CC1 [Ketanserine, reference compound]
Output: not satisfied

---

protocol.notes: in vivo
setup.conditions: plasma, po; rat, OS 15 mg/kg, 3 h
Structures can show the parent of a compound that is named as a salt.
endpoint.name: concentration at 3 h (ng/mL)
Output spec: scalar in ng/mL, unitless text.

Task: GET /values?readout=concentration at 3 h&item= COc1cc2nc(N3CCC(c4ccccn4)CC3)nc(N)c2cc1OC [Compound 7, (hydrochloride)]
Output: 340

---

protocol.notes: in vivo
setup.conditions: rat, plasma, iv, 1 mg/kg
Where a name gives a salt, the structure may show the parent alone.
endpoint.name: concentration at 4 h (ng/mL)
Output spec: scalar in ng/mL, unitless text.

Task: GET /values?readout=concentration at 4 h&item= COc1cc2nc(N3CCC(c4ccccn4)CC3)nc(N)c2cc1OC [Compound 7, (hydrochloride)]
Output: 10
